Biological target: human OX1 receptor (Homo sapiens)
Sequence (O43613 whole entry): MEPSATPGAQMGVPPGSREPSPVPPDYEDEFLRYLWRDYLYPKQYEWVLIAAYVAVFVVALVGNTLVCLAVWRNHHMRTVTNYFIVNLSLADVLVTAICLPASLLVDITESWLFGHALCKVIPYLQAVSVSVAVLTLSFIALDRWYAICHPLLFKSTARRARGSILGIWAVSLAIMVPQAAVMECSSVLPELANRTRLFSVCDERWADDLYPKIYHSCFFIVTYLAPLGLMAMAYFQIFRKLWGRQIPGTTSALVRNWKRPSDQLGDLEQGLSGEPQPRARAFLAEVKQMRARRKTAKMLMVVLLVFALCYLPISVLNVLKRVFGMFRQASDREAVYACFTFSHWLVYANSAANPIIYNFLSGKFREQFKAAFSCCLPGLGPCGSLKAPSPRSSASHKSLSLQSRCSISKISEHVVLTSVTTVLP
Assay: Inhibition of orexin A-induced increase in intracellular calcium concentration (FLIPR), OX1 receptor expressing CHO-K1 cells
Settings: CHO-K1 cells stably expressing human OX1 receptor; 0.3 nM orexin A; compound added 5 minutes before; fluo-3 AM; read-out: 50% Inhibition concentration, OX1 receptor
Observed Property: IC50 (µM)

> print(dat)
                                   compound  readout.unit  numeric.readout
1  COc1cc2c(cc1OC)CN(C(=O)C(Cc1ccccc1)NC(=O)c1cc(Cl)cc(Cl)c1)CC2 (stereo not shown)            µM              5.3
2  COc1cc2c(cc1OC)CN(C(=O)[C@@H](NCc1ccncc1)C(C)(C)C)CC2            µM               24

[a] COc1cc2c(cc1OC)CN(C(=O)[C@@H](NCc1cccc(Br)c1)C(C)(C)C)CC2
[b] COc1cc2c(cc1OC)CN(C(=O)[C@@H](NCc1nccs1)C(C)(C)C)CC2
Exercise: Thinking about recorded IC50 values, which is higher, a or b ? Output the label that corresponds to your choice.
Solution: b

* * *

Biological target: human OX2 receptor (Homo sapiens)
Sequence (O43614 whole entry): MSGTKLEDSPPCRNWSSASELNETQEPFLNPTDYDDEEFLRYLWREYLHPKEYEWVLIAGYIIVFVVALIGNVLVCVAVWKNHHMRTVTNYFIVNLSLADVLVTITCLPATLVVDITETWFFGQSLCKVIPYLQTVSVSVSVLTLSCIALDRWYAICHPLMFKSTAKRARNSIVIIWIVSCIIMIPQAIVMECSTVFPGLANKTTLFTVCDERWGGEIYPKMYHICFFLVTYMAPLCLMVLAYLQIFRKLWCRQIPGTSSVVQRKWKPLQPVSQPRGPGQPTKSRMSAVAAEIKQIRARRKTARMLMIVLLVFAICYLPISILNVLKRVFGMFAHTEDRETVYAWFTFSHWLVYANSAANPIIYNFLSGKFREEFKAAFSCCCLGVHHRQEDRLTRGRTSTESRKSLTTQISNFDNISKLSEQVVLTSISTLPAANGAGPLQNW
Assay: Inhibition of orexin A-induced increase in intracellular calcium concentration (FLIPR), OX2 receptor expressing CHO-K1 cells
Settings: CHO-K1 cells stably expressing human OX2 receptor; 0.3 nM orexin A; compound added 5 minutes before; fluo-3 AM; read-out: 50% Inhibition concentration, OX2 receptor
Text: A cDNA sequence encoding human orexin OX1 receptor or OX2 receptor (see GenBank, accession number AF 041243 and AF 041245) was cloned into the EcoRV-EcoRI site of a mamal expressed plasmid vector pIRESIneo (made by Clontech Laboratories, Inc.) and the PmlI-XbaI site of a mamal expressed plasmid vector pEF/myc/cyto (made by Invitrogen Corp.). The resulting vectors were respectively transfected into Chinese hamster's ovarian cells CHO-K1 (Americam Type Culture Collection, ATCC number CCL-61). […]
pIC50: −log10 of the molar value.
Observed Property: pIC50

Recorded pIC50, per entry:
> print(dat)
                                   compound  numeric.readout
1  COc1cc2c(cc1OC)CN(C(=O)[C@@H](NCc1ccncc1)C(C)(C)C)CC2 [Example 6]             6.96
2  COc1cc2c(cc1OC)CN(C(=O)C(Cc1ccccc1)NC(=O)c1cc(Cl)cc(Cl)c1)CC2 (stereo not shown) [Example 4]             7.51

[I] COc1cc2c(cc1OC)CN(C(=O)[C@@H](NCc1cccc(Br)c1)C(C)(C)C)CC2 [Example 23]
[II] COc1cc2c(cc1OC)CN(C(=O)[C@@H](NCc1nccs1)C(C)(C)C)CC2 [Example 8]
Exercise: Thinking about recorded pIC50 values, which is higher, I or II ? Output the label that corresponds to your choice.
Solution: II
